These entries and their values trace back to ChEMBL document CHEMBL1201862.

System: OVCAR-5
method-notes: NCI tumour cell line growth inhibition, 48 h
Calls of active or inactive are those of the source. Cut-off read from the data, not from the text of the source: active = GI50 up to about 1.1 µM and inactive = higher.
Please go through the items and note down their GI50.

Check out these entries, answers already filled in.
- Cc1ccc(-c2sc(-c3ccc(C)cc3)c3c2C2CCC3C2)cc1: > 50 µM (inactive)
- CC12CCC(CC1=O)C2(C)CCC(N)=O (configuration not stated): > 100 µM (inactive)

Please give GI50 for each item listed below.
1. CC(C)(C)NCCC(O)c1cc(C(F)(F)F)nc2c(C(F)(F)F)cccc12 (configuration not stated)
2. O=C1c2scc(-c3ccc(Cl)cc3)c2-n2cccc21
3. CC(=O)N1N(c2ccc([N+](=O)[O-])cc2)C(=O)C1(C)C
4. CCOC(=O)c1ccc(/N=C/c2ccc(N(CCC#N)S(=O)(=O)c3ccccc3)cc2C)cc1
5. Cn1c(=S)c2nc(SCCN3CCCC3)[nH]c2n(C)c1=O

1. 15.2 µM (inactive)
2. > 100 µM (inactive)
3. 23.3 µM (inactive)
4. 31.8 µM (inactive)
5. > 100 µM (inactive)

====

System: MDA-MB-231
method-notes: NCI tumour cell line growth inhibition, 48 h
The source made the active and inactive calls. No stated cut-off is given here; in the data, active = GI50 up to about 1.1 µM and inactive = higher.
reported-property: GI50

Check out these entries, answers already filled in.
• Cc1c(CCN2CCOCC2)c(N2CCOCC2)n2c(nc3ccccc32)c1C#N = > 10 µM (inactive)
• O=[N+]([O-])c1ccc(CSCc2ccc(Cl)cc2)cc1 = > 100 µM (inactive)
• CCOC(=O)c1c(-c2ccc(OC)cc2)c(C#N)c(=S)n(C2OC(COC(C)=O)C(OC(C)=O)C(OC(C)=O)C2OC(C)=O)c1-c1ccccc1 (centres undefined) = > 100 µM (inactive)
• CN(C)Cc1cc(C(F)(F)F)ccc1C(O)(c1ccccc1)c1ccccc1 = 11.9 µM (inactive)
• CCOP(=O)(OCC)/C(=C/c1ccccc1)CC(C)=O = > 100 µM (inactive)

Please give GI50 for each item listed below.
1. O=C1c2ccccc2C2(c3ccc(Cl)cc3)N[C@@H]3CCCC[C@@H]3N12 (some centres undefined)
2. CC1(C2(C)OC(=O)c3ccccc32)OC(=O)c2ccccc21 (centres undefined)

1. > 100 µM (inactive)
2. > 100 µM (inactive)

Please give GI50 for each item listed below.
1. O=C(Nc1ccc(Cl)cc1)c1cc2c(cc1Cl)Sc1nccn1S2(=O)=O
2. COC(=O)C1(C(=O)OC)CC2=C(S(=O)(=O)c3ccccc3)C[C@H](S(=O)(=O)c3ccccc3)[C@H]2C1

43.7 µM (inactive)
27.4 µM (inactive)

====

Test system: CCRF-CEM
method-notes: NCI tumour cell line growth inhibition, 48 h
Activity calls are given as the source filed them. No stated cut-off is given here; in the data, active = GI50 up to about 1.1 µM and inactive = higher.
Give one outcome, nothing more. List: 1 = active, -1 = inactive

* Cc1c(CCN2CCOCC2)c(N2CCOCC2)n2c(nc3ccccc32)c1C#N | -1
* CCCN(CCC)c1c([N+](=O)[O-])cc(C(=O)N(CCO)CCO)cc1[N+](=O)[O-] | -1
* CCOC(=O)C12CCCC1(O)N(NC(N)=O)C(C)=C2C(=O)OC (configuration not stated) | -1
* CN1C(=O)C(C(=O)Nc2ccccn2)C2C[C@@]1(C)Oc1ccccc12 (some centres not stated) | -1
* Cc1ccc(C2CC(c3cccc([N+](=O)[O-])c3)=Nc3ccccc3S2)cc1 (configuration not stated) | -1

Here's the next entry for you.
Can you look up the reported call for COC(=O)NCCc1n[nH]c2c1C(=O)C=C(OC)C2=O for me? -1

====

Test system: K562
method-notes: NCI tumour cell line growth inhibition, 48 h
Active and inactive are the calls of the source. No stated cut-off is given here; in the data, active = GI50 up to about 1.1 µM and inactive = higher.
reported-property: GI50

- CCOC(=O)Nc1ccc(S(=O)(=O)OC)cc1.CCOC(=O)Nc1ccc(S(=O)(=O)OC)cc1.NNC(=O)c1ccncc1: 40.2 µM (inactive)
- COc1cc(Cl)c(CC(=O)c2c[nH]c3ccccc23)cc1OC: > 49.2 µM (inactive)
- N#Cc1ccc(Cc2ccccn2)cc1Cl: > 100 µM (inactive)
- COc1ccc(-c2[nH]c(=O)n(C3OC(CO)C(O)C(O)C3O)c(=O)c2C#N)cc1 (stereo not given): > 100 µM (inactive)
- Cc1ccc(OCC2OC(n3cnc4c(Cl)nc(N)nc43)CC2Oc2ccc(C)cc2)cc1 (stereo not given): 29.4 µM (inactive)

Please give GI50 for each item listed below.
1. Cc1c(C(=O)O)sc2nc[nH]c(=O)c12
2. COC(=O)C(F)C(Br)C(=O)OC (stereo not given)
3. COC(=O)[C@@H]1C=C[C@H](OC2OC(COC(C)=O)C(OC(C)=O)C(OC(C)=O)C2OC(C)=O)n2c(=O)n(-c3ccccc3)c(=O)n21 (stereo not given in full)
4. Oc1ccc2c(c1)OCC1(O)Cc3cc(O)c(O)cc3C21 (stereo not given)
5. O=[N+]([O-])c1ccc(Cl)c(C2CC(c3cccc4ccccc34)=Nc3ccccc3S2)c1 (stereo not given)

> 100 µM (inactive)
1.63 µM (inactive)
1.61 µM (inactive)
27.7 µM (inactive)
6.31 µM (inactive)

====

Test system: SF-539
method-notes: NCI tumour cell line growth inhibition, 48 h
Calls of active or inactive are those of the source. Rule as the data show it: active = GI50 up to about 1.1 µM and inactive = higher.
reported-property: GI50

• N#Cc1c2c(c(Nc3cccc(C(F)(F)F)c3)n3c1nc1ccccc13)CCCC2 = 16.3 µM (inactive)

Please give GI50 for each item listed below.
1. Cc1[nH]c2ncn(Nc3ccccc3)c(=N)c2c1Cc1ccccc1
2. Oc1ccc2c(c1)OCC1(O)Cc3cc(O)c(O)cc3C21 (stereo not given)
3. CC(C)(CCCCC(C)(C)[N+](C)(C)C)[N+](C)(C)C

["> 100 µM (inactive)", "17 µM (inactive)", "> 100 µM (inactive)"]

Please give GI50 for each item listed below.
1. COc1cccc2c1C(=O)C=CC2=O
2. CCCCCCCC(=O)OCC1OC(OC)C(NC(=O)N(CCCl)N=O)C(O)C1O (stereo not given)
3. O=Cc1c2c(cc3c1CC1(C3)Cc3cc4c(c(C=O)c3C1)CCC4)CCC2
4. CCOC(=O)c1c(-c2ccc(OC)cc2)c(C#N)c(=S)n(C2OC(COC(C)=O)C(OC(C)=O)C(OC(C)=O)C2OC(C)=O)c1-c1ccccc1 (stereo not given)
5. CC[C@H]1CC(=O)c2c(cc3c(c2O)C(=O)c2ccccc2C3=O)[C@@]1(C#N)C(=O)OC(C)(C)C
6. C=CC[C@@]1(OC(C)=O)C(=O)C(=O)OC1C1COC(C)(C)O1 (stereo not given in full)

1: 16.1 µM (inactive); 2: 2.64 µM (inactive); 3: 37.5 µM (inactive); 4: > 100 µM (inactive); 5: 4.13 µM (inactive); 6: 25.1 µM (inactive)

====

Test system: NCI/ADR-RES
method-notes: NCI tumour cell line growth inhibition, 48 h
The source made the active and inactive calls. Cut-off read from the data, not from the text of the source: active = GI50 up to about 1.1 µM and inactive = higher.
reported-property: GI50

* CCON=C1C(C)(C)C(C)(C)C(C)(C)C1(C)C | > 100 µM (inactive)
* COC(=O)C(F)C(Br)C(=O)OC (stereo not given) | 2.94 µM (inactive)
* COc1ccc(/C=C2\CSC/C(=C\c3ccc(OC)c(OC)c3OC)C2=O)c(OC)c1OC | 23.1 µM (inactive)
* COc1ccc(-c2cc(=O)c3c(OC)c(OC)c(OC)c(OC)c3o2)cc1OC | 20.3 µM (inactive)
* Cc1nc2c(Br)cc(Br)cc2c(=O)n1-c1ccccc1N | 45.9 µM (inactive)
* O=C(c1ccco1)N1CCCN(C(=O)c2ccco2)C1=S | > 100 µM (inactive)
* COc1ccc(-c2nc(SCC(=O)N/N=C/c3ccc(N(C)C)cc3)[nH]c2-c2ccc(OC)cc2)cc1 | > 100 µM (inactive)
* COC(=O)C1=C(O)C(C(=O)OC)[C@]2(O)[C@H](C(=O)OC)[C@H]1C[C@@H](c1ccc(OC)c(OC)c1)[C@H]2C(=O)OC (stereo not given in full) | 15.5 µM (inactive)
* CNC(=O)C(C)NC(=O)C(Cc1ccccc1)NC(=O)c1ccccc1 (stereo not given) | > 100 µM (inactive)

Shift focus to the following entry.
Give a short answer stating reported GI50 for CN(CC(=O)O)c1ncc2c(n1)CCCC2 . > 100 µM (inactive)

====

Tested on: SK-MEL-5
method-notes: NCI tumour cell line growth inhibition, 48 h
The source made the active and inactive calls. No stated cut-off is given here; in the data, active = GI50 up to about 1.1 µM and inactive = higher.
reported-property: GI50

Check out these entries, answers already filled in.
- Clc1ccc(/C(=C\c2ccccc2)Cn2ccnc2)cc1: 12.8 µM (inactive)
- CC(CSc1nc2c(c(=N)n1-c1ccccc1)c(=S)n(-c1ccccc1)c(=S)n2-c1ccccc1)CN(C)C (stereo not drawn): 2.05 µM (inactive)

Shift focus to the following entry.
Give a short answer stating reported GI50 for COc1cccc(/C=C/C2=NN(c3cccc(S(=O)(=O)O)c3)C3(C2)SCC(=O)N3c2nc3ccccc3s2)c1 (stereo not drawn) . 36 µM (inactive)
